target: Coagulation factor VII/tissue factor (Homo sapiens, UniProt P08709); assay: Inhibition of recombinant human factor-7a/TF using S2288 as substrate measured after 60 mins at 37 degC; assay type: protein-complex assay
Sequence (P08709 61-212 limits assumed): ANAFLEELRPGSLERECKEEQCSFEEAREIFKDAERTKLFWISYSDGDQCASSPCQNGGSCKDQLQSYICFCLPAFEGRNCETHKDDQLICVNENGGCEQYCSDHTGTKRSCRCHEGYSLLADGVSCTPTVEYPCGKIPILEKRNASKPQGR
Sequence (P08709 213-466 limits assumed): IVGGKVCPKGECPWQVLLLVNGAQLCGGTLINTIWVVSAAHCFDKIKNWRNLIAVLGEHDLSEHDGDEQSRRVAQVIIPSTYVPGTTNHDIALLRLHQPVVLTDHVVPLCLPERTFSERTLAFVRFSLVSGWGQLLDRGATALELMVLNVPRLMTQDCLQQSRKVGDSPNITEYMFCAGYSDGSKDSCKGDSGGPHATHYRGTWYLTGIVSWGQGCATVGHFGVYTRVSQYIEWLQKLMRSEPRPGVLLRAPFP
Sequence (P13726 33-295 partner limits assumed): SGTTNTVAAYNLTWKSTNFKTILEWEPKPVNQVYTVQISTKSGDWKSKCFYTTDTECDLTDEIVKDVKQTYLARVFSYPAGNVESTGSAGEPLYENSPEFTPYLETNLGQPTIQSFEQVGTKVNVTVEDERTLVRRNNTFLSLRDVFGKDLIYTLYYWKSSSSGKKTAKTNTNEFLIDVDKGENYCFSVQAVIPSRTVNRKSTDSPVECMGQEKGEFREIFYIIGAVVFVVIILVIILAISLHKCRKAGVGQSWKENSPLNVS
Reported Property: Ki (nM)

| Structure String | Output Unit | Result |
| --- | --- | --- |
| CN1Cc2cc(ccc2S(=O)(=O)C2CC2)NC(=O)CCc2cccc(c2)[C@@H](Nc2ccc3c(N)ncc(F)c3c2)C1=O | nM | 260 |
| CN1Cc2cc(ccc2S(=O)(=O)C2CC2)NC(=O)CCc2cc(ccc2OCC2CC2)[C@@H](Nc2ccc3c(N)ncc(F)c3c2)C1=O | nM | 26 |
| C[C@@H]1CC(=O)Nc2ccc(S(=O)(=O)C3CC3)c(c2)CN(C)C(=O)[C@H](Nc2ccc3c(N)ncc(F)c3c2)c2ccc(OCC(F)F)c1c2 | nM | 0.24 |
| CN1Cc2cc(ccc2S(=O)(=O)C2CC2)NC(=O)CCc2cccc(c2)[C@@H](Nc2ccc3c(N)nccc3c2)C1=O | nM | 58 |
